# tgt: hSERT (Homo sapiens, UniProt P31645)
# Construct: expressed in transfected cells
# Sequence (P31645 whole entry): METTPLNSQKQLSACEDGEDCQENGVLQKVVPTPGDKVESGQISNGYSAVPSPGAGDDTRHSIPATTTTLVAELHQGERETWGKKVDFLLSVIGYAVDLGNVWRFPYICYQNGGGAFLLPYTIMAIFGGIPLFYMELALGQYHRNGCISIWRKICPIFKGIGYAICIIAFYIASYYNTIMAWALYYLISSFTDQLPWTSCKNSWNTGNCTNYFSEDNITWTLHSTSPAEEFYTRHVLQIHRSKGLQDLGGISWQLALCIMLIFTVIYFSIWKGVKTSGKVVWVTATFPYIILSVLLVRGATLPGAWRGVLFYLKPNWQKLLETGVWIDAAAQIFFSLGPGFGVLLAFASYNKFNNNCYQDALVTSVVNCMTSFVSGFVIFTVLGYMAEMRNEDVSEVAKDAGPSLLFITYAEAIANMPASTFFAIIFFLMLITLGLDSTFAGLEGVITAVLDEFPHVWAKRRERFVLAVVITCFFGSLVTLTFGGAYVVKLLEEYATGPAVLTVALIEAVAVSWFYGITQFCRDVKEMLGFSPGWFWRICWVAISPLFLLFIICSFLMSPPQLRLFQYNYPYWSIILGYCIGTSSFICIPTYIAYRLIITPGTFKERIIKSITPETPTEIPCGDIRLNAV
# Format: cell-based
# test.settings: Row 8 (time fraction); drug alone vs drug + monensin (Mon)
readout.label: Mean diff, hSERT efflux ± Mon (Šídák's multiple comparisons test)
Lab note: jot down the number only; don't add units.

| compound | result.number |
| --- | --- |
| CCCC(Cc1cccc(C)c1)N1CCCC1 (centres unmarked) | -4.546 |

input: I would be grateful if you could share the reported Mean diff, hSERT efflux ± Mon (Šídák's multiple comparisons test) for CCCC(Cc1ccccc1F)N1CCCC1 (centres unmarked) .
output: -4.727

Data provenance is paper PMC12720098.
